Biological target: 5-hydroxytryptamine receptor 2B (Homo sapiens)
Sequence (P41595 whole entry): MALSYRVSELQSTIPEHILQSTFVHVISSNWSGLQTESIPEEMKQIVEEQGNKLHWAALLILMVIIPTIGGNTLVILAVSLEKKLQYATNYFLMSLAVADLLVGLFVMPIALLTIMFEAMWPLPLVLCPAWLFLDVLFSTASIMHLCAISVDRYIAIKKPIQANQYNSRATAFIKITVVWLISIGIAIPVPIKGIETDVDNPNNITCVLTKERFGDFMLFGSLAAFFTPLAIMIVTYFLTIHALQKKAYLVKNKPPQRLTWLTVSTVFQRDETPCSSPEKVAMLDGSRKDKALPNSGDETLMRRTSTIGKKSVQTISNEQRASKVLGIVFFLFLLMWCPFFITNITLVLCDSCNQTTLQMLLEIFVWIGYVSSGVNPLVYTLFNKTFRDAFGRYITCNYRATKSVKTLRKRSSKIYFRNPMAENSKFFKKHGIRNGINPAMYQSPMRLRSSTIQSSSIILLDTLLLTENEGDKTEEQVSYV
Experiment: Displacement of [3H]LSD from human recombinant 5-HT2B receptor stably expressed in HEK cell membrane after 90 mins by scintillation counting method
Format: cell membranes, HEK293
pKi: −log10 of the molar value.
readout_name: pKi

Some molecules with known pKi results, for comparison:
COc1cccc(CCCN(CCc2ccc(OC)c(OC)c2)Cc2ccc3c(c2)OCO3)c1 7.23
COc1ccc(CCN(CCCc2ccccc2)CCc2ccc3c(c2)OCO3)cc1OC 7.59
COc1ccc(OC)c(CCCN(CCc2ccc(OC)c(OC)c2)CCc2ccc3c(c2)OCO3)c1 7.44
COc1ccc(CCN(CCc2ccc3c(c2)OCO3)Cc2ccccc2)cc1OC 7.23
COc1ccc(CCN(CCc2ccccc2)CCc2ccc3c(c2)OCO3)cc1OC 7.77

I. COc1cccc(CCCN(CCc2ccc(OC)c(OC)c2)CCc2ccc3c(c2)OCO3)c1
II. Cn1ccc2cc3c(cc21)CCN3C(=O)Nc1cccnc1
Enquiry: Lower value for measured pKi? Options: I , II Answer format: the label of the selected item.
Return: II
(II: 7.68, I: 8.34)
